FYI, the data here is from paper PMC5540273.

- Tested on: SNRK
- experimentalConditions: concentration: 1 μM, replicates: in singlicate; n = 1;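 also: KINOMEscan kinase panel screen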
Kindly supply the reported %Inh values for the records listed here.
Write down the value, and be sure its unit follows.

// %Inh (SNRK) for Nc1ncnc2[nH]c(-c3ccccc3)nc12 = 100%

// %Inh (SNRK) for Cl.O=C(Nc1cccc(-c2nn3ncccc3c2-c2ccnc(Nc3cccnc3)n2)c1)c1c(F)cccc1F = 0%

// %Inh (SNRK) for Cc1cccc(-c2cc(Nc3ccncc3)c3ccccc3n2)n1 = 0%

// %Inh (SNRK) for COc1ccc(Nc2nccc(-c3cccc(NC(=O)c4cc5cc(F)ccc5[nH]4)c3)n2)cc1 = 0%

// %Inh (SNRK) for CS(=O)(=O)c1ccc(-c2c(-c3ncn[nH]3)sc(N3CCOCC3)c2C#N)cc1 = 7%

// %Inh (SNRK) for Fc1cccc(COc2nnc(-c3ccc4c(c3)CCO4)o2)c1 = 0%

// %Inh (SNRK) for CCn1c(-c2cccnc2O)nc2cnccc21 = 0%

// %Inh (SNRK) for Cc1nnc(-c2ccc3occ(-c4ccc(S(C)=O)cc4)c3c2)[nH]1 (stereo not drawn) = 0%

// %Inh (SNRK) for COc1cc2ncnc(Nc3ccc4nc(-c5ccccc5)[nH]c4c3)c2cc1OC.Cl = 0%

// %Inh (SNRK) for Cl.Oc1ccc(-c2nc(-c3ccccc3)[nH]c2-c2ccncc2)cc1 = 5%

// %Inh (SNRK) for COC(=O)c1c(-c2ccccc2)c2cc(C(=O)O)ccc2c(=O)n1Cc1ccccc1 = 0%

// %Inh (SNRK) for O=c1cc(N2CCOCC2)nc2n(Cc3cccc(Cl)c3Cl)ccn12 = 0%

// %Inh (SNRK) for Nc1nc(-c2nccs2)c(-c2ccnc3ccccc23)s1 = 0%

// %Inh (SNRK) for COc1ccc(C2=C(Nc3cccc(C(=O)O)c3)C(=O)NC2=O)cc1 = 0%

// %Inh (SNRK) for NC(=O)c1nnc2ccccc2c1N = 14%

// %Inh (SNRK) for COc1cc2nccc(Nc3ccc(NC(=O)c4ccc(C)cc4)c(O)c3)c2cc1OC.Cl = 0%

// %Inh (SNRK) for Cc1csc(-c2nc(Nc3ccncc3)c3ccccc3n2)n1 = 20%

// %Inh (SNRK) for CCCc1ccc(S(=O)(=O)NC2CCN(c3ccnc(Nc4ccc(F)cc4)n3)C2)cc1 (stereo not drawn) = 0%

----------
- Tested on: DMPK
- experimentalConditions: concentration: 1 μM, replicates: in singlicate; n = 1
Kindly supply the reported %Inh values for the records listed here.
Give just the numeric value; % need not be written.

%Inh for Cc1cc(-c2ccc3c(c2)CC[C@@H](N[C@@H](C)c2ccccc2)C3)cnc1N.Cl is 6

%Inh for CC(=O)Nc1nc2cnc(Nc3cc(NC(=O)c4cccc(CCC#N)c4)ccc3C)nc2s1 is 12

%Inh for CS(=O)(=O)c1ccc(-c2nc3n(c2-c2ccncc2)CCC3)cc1 is 0

%Inh for CCn1c(-c2ccccn2)nc2cnccc21 is 0

%Inh for O=C1NC(=O)C(N2CCc3ccccc32)=C1c1ccccc1Cl is 26

%Inh for NC(=O)c1nnc2ccccc2c1N is 0

%Inh for O=c1cc(N2CCOCC2)nc2n(Cc3cccc(Cl)c3Cl)ccn12 is 3

%Inh for O=C(Nc1ccc2c(c1)OCO2)NC1CCN(c2ccnc(Nc3ccc(F)cc3)n2)C1 (centres unmarked) is 0

%Inh for CCn1c(-c2cccnc2O)nc2cnccc21 is 0

%Inh for O=C(O)COc1ncnc2cc(-c3ccc4[nH]ncc4c3)sc12 is 13

%Inh for Fc1cc(Cl)ccc1Nc1ccnc2cc(I)ccc12 is 21

%Inh for C[C@@H]1CCCCN1c1cc(-c2ccc3c(N)n[nH]c3c2)nc(N)n1 is 0

%Inh for COc1ccccc1-c1ccc2c(NC(=O)C3CC3)n[nH]c2n1 is 1

%Inh for COc1cc(Nc2nccc(N3CCC(NC(=O)Nc4cc(C)ccc4C)C3)n2)cc(OC)c1OC (centres unmarked) is 0

----------
- Tested on: MKNK2
- experimentalConditions: concentration: 1 μM, replicates: in singlicate; n = 1
Kindly supply the reported %Inh values for the records listed here.

%Inh for O=C(O)COc1ncnc2cc(-c3ccc4[nH]ncc4c3)sc12 is 13%

%Inh for Cc1ccc(NC(=O)Nc2cccc(Cl)c2)cc1-c1ccc(C(=O)Nc2ccncc2)cc1 is 4%

%Inh for Cc1c(Cn2ccn3c(=O)cc(N4CCOCC4)nc23)cccc1C(F)(F)F is 0%

%Inh for CC(=O)Nc1nc2cnc(Nc3cc(NC(=O)c4cccc(CCC#N)c4)ccc3C)nc2s1 is 0%

%Inh for COc1ccc(Nc2nccc(NCCNC(=O)Nc3ccccc3F)n2)cc1 is 13%

%Inh for Cc1cc(N2Cc3ccccc3C2)nc(Nc2ccc(S(=O)(=O)N3CCOCC3)cc2)n1.Cl is 0%

%Inh for COc1ccccc1-c1ccc2c(NC(=O)C3CC3)n[nH]c2n1 is 0%

----------
Kindly supply the reported %Inh values for the records listed here.
- Test system: GRK3
- Construct: gene ADRBK2
- experimentalConditions: concentration: 1 μM, replicates: in singlicate; n = 1
Give just the numeric value; % need not be written.

%Inh for Cc1ccc(-c2cc(-c3c[nH]nc3-c3ccccn3)ccn2)cc1 is 74

%Inh for Cl.c1ccc(-c2n[nH]cc2-c2ccnc(-c3ccc(CN4CCOCC4)cc3)c2)nc1 is 0

%Inh for Cl.O=C(Nc1cccc(-c2nn3ncccc3c2-c2ccnc(Nc3cccnc3)n2)c1)c1c(F)cccc1F is 27

%Inh for Cc1nnc(-c2ccc3occ(-c4ccc(S(C)=O)cc4)c3c2)[nH]1 (centres unmarked) is 40

%Inh for Cc1cc(N2Cc3ccccc3C2)nc(Nc2ccc(S(=O)(=O)N3CCOCC3)cc2)n1.Cl is 0

----------
Kindly supply the reported %Inh values for the records listed here.
- System: JNK2
- Construct: gene MAPK9
- experimentalConditions: concentration: 1 μM, replicates: in singlicate; n = 1
Give just the numeric value; % need not be written.

%Inh for O=C(Nc1n[nH]c2cc(-c3cccc(F)c3F)ccc12)C1CC1 is 0

%Inh for Cn1ccc2ncnc(Oc3ccc(Nc4nc5ccccc5[nH]4)cc3)c21 is 0

%Inh for Cc1cc(-c2ccc3c(c2)CC[C@@H](N[C@@H](C)c2ccccc2)C3)cnc1N.Cl is 3

%Inh for O=C(Nc1n[nH]c2nc(-c3nccs3)c(Br)cc12)C1CC1 is 16

%Inh for Cc1c(O)cccc1Nc1ccnc2ccc(C(F)(F)F)cc12.Cl is 4

%Inh for Fc1cc(Cl)ccc1Nc1ccnc2cc(-c3ccc(CN4CCCCC4)o3)ccc12 is 1

%Inh for Clc1cc(Cl)cc(Nc2ccnc(Nc3cc(Cl)cc(Cl)c3)n2)c1 is 0

%Inh for CS(=O)(=O)c1ccc(-c2c(-c3ncn[nH]3)sc(N3CCOCC3)c2C#N)cc1 is 0

%Inh for COc1ccc(CNC(=O)NC2CCN(c3ccnc(Nc4cc(OC)c(OC)c(OC)c4)n3)C2)cc1 (stereo not drawn) is 0

----------
Kindly supply the reported %Inh values for the records listed here.
- Test system: MAP3K2
- experimentalConditions: concentration: 1 μM, replicates: in singlicate; n = 1
Give just the numeric value; % need not be written.

// %Inh (MAP3K2) for Cc1cc(-c2ccc3c(c2)CC[C@@H](N[C@@H](C)c2ccccc2)C3)cnc1N.Cl [GW412617] = 20

// %Inh (MAP3K2) for CN(C)CCN(C)C(=O)c1cc(-c2ccncc2)c(-c2ccc(Cl)c(O)c2)o1.Cl.Cl [SB-710397] = 0

// %Inh (MAP3K2) for Cn1ccc2ncnc(Oc3cccc(C(=O)Nc4ccccc4)c3)c21 = 11

// %Inh (MAP3K2) for O=C(Nc1ccc2c(c1)OCO2)NC1CCN(c2ccnc(Nc3ccc(F)cc3)n2)C1 (stereo not drawn) [GSK1379724] = 6

// %Inh (MAP3K2) for Cn1ccc2ncnc(Oc3ccc(NC(=O)Nc4ccccc4)cc3)c21 = 0

// %Inh (MAP3K2) for COc1cc2ncnc(Nc3ccc4nc(-c5ccccc5)[nH]c4c3)c2cc1OC.Cl [GW282450] = 8

// %Inh (MAP3K2) for Nc1ncnc2[nH]c(-c3ccccc3)nc12 [AH5015] = 0

// %Inh (MAP3K2) for Cc1cccc(-c2nc(Nc3ccncc3)c3ccccc3n2)n1 [GW855857] = 0

// %Inh (MAP3K2) for CS(=O)(=O)c1ccc(-c2nc3n(c2-c2ccncc2)CCC3)cc1 [SKF-105942] = 3

// %Inh (MAP3K2) for COc1ccc(C2=C(Nc3cccc(C(=O)O)c3)C(=O)NC2=O)cc1 [SB-390765] = 12

// %Inh (MAP3K2) for COc1ccc(Nc2nccc(-c3cccc(NC(=O)c4cc5cc(F)ccc5[nH]4)c3)n2)cc1 [GSK1229782] = 38

// %Inh (MAP3K2) for CCn1c(-c2cccnc2O)nc2cnccc21 [SB-736715] = 0

// %Inh (MAP3K2) for Cc1cccc(-c2nc(Nc3cccc(C(N)=O)c3)c3ccccc3n2)n1 [GW876019] = 0

// %Inh (MAP3K2) for O=C1NC(=O)C(N2CCc3ccccc32)=C1c1ccccc1Cl [SB-373598] = 4

// %Inh (MAP3K2) for NC(=O)c1nnc2ccccc2c1N = 31

// %Inh (MAP3K2) for Cc1cccc(-c2nc(Nc3ccc4[nH]ncc4c3)c3ccccc3n2)n1 [GW857175] = 36

// %Inh (MAP3K2) for Cc1cc(N2Cc3ccccc3C2)nc(Nc2ccc(S(=O)(=O)N3CCOCC3)cc2)n1.Cl [GSK1669917] = 0

// %Inh (MAP3K2) for COc1ccc(CNC(=O)NC2CCN(c3ccnc(Nc4cc(OC)c(OC)c(OC)c4)n3)C2)cc1 (stereo not drawn) [GSK1379748] = 0

// %Inh (MAP3K2) for O=C(Nc1n[nH]c2nc(-c3nccs3)c(Br)cc12)C1CC1 [SB-742251] = 0

// %Inh (MAP3K2) for O=C(Nc1n[nH]c2cc(-c3cccc(F)c3F)ccc12)C1CC1 [SB-733894] = 6

// %Inh (MAP3K2) for Cc1nnc(-c2ccc3occ(-c4ccc(S(C)=O)cc4)c3c2)[nH]1 (stereo not drawn) = 1

// %Inh (MAP3K2) for Fc1cc(Cl)ccc1Nc1ccnc2cc(I)ccc12 [GW551191] = 0

// %Inh (MAP3K2) for CS(=O)(=O)c1ccc(-c2c(-c3ncn[nH]3)sc(N3CCOCC3)c2C#N)cc1 = 6

// %Inh (MAP3K2) for COc1cc2ncn(-c3cc(OCC4CCCO4)c(C(N)=O)s3)c2cc1OC (stereo not drawn) [GSK204607] = 0
